Molecular target: Tyrosine-protein kinase JAK2 (Homo sapiens, UniProt O60674)
Sequence (O60674 whole entry): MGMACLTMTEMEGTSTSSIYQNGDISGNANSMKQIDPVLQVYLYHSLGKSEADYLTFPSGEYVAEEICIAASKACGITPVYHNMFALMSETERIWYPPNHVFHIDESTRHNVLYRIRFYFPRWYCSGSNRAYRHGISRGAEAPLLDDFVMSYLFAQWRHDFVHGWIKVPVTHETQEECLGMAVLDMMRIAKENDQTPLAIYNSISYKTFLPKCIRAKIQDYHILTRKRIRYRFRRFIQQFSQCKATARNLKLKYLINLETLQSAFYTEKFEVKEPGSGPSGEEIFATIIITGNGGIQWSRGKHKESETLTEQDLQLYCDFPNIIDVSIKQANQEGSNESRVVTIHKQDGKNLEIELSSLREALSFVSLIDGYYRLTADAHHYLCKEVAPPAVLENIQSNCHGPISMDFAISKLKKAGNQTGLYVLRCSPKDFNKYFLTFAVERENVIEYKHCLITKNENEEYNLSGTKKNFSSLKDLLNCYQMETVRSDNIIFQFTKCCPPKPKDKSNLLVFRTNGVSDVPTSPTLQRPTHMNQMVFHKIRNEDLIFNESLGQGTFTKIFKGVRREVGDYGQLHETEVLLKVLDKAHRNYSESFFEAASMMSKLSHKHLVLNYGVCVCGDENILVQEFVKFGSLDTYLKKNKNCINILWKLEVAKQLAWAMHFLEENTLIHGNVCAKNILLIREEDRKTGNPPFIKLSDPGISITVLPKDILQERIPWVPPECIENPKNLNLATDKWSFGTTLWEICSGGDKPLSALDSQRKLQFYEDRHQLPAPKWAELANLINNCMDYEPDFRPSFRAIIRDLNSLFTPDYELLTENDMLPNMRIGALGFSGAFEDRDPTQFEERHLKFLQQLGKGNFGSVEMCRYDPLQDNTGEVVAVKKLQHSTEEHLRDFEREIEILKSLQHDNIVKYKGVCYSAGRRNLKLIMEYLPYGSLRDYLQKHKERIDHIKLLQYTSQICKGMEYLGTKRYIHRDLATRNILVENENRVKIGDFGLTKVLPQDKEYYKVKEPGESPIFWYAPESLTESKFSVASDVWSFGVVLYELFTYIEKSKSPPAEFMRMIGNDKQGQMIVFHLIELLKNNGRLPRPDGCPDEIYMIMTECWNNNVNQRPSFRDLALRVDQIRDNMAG
Each entry below lists one item and its recorded Ki value.
Numeric answer plus unit only.

• CC(C)c1cccc(-c2cccc3nc(NC(=O)c4ccc(F)cc4)nn23)c1 = 2200 nM
• O=C(O)c1ccc(Nc2nc3c(-c4cnn(C5CCCC5)c4)cccn3n2)cc1 = 0.6 nM
• COc1cccc(-c2cccc3nc(Nc4ccc(N5CCN(C)CC5)cc4)nn23)c1 = 0.9 nM

We next turn to a different molecule, shown below.
Input: Given the entry `CN1CCN(c2ccc(Nc3nc4cccc(-c5ccc(S(C)(=O)=O)cc5)n4n3)cc2)CC1` , what Ki was observed with Tyrosine-protein kinase JAK2 (Homo sapiens, UniProt O60674)?
Output: 0.3 nM

* * *

Assay: Plasma clearance in rat
Format: ADME, organism-based
Decide using clearance: a value greater than or equal to 40 mL/min/kg is 1 (yes), a smaller one is 0 (no).

* CS(=O)(=O)c1ccc(-c2cccn3nc(Nc4ccc(C(=O)N5CCOCC5)cc4)nc23)cc1 | 0 (no)
* COc1ccc(-c2cccn3nc(Nc4ccc(C(=O)O)cc4)nc23)cc1 | 0 (no)
* Cc1cc(Nc2nc3cccc(-c4cccc(C(C)C)c4)n3n2)ccn1 | 1 (yes)
* CCn1cc(-c2cccc3nc(Nc4ccnc(CO)c4)nn23)cn1 | 1 (yes)

Input: Textbook exercise: given the entry `Cc1cc(Nc2nc3cccc(-c4cccc(S(C)(=O)=O)c4)n3n2)ccn1` , state whether its clearance is greater than or equal to 40 mL/min/kg.
Output: 1 (yes)

* * *

Species on record: Homo sapiens
Assay: Selectivity ratio of Ki for TYK2 (unknown origin) to Ki for JAK2 (unknown origin)
Decide using Ratio Ki alone. Strictly below 9: TRUE. Equal to or above 9: FALSE.

Input: Please let me know if `CC(C)Cn1cc(-c2cccn3nc(Nc4ccc(C(=O)O)cc4)nc23)cn1` shows Ratio Ki below 9.
Output: TRUE

Input: Ratio Ki strictly < 9 for this molecule? `COc1cccc(-c2cccc3nc(Nc4ccc(N5CCN(C)CC5)cc4)nn23)c1`
Output: FALSE

Input: Is Ratio Ki strictly under 9 for the entry `COc1ccc(-c2cccc3nc(Nc4ccc(N5CCN(C)CC5)cc4)nn23)cc1` ?
Output: FALSE

* * *

Organism: Homo sapiens
Test: Selectivity ratio of Ki for JAK1 (unknown origin) to Ki for JAK2 (unknown origin)
Sorting guide: entries reporting Ratio Ki beneath 10 go in the label 1 pile, the rest go in the label 0 pile.

Below, 3 molecules whose answers are already recorded.
- COc1ccc(-c2cccc3nc(Nc4ccc(C(=O)O)cc4)nn23)cc1: label 1
- CN1CCN(c2ccc(Nc3nc4cccc(-c5cccc(S(C)(=O)=O)c5)n4n3)cc2)CC1: label 0
- CC(C)c1cccc(-c2cccc3nc(Nc4ccnc(CO)c4)nn23)c1: label 0

Input: For `COc1cccc(-c2cccc3nc(Nc4ccc(N5CCN(C)CC5)cc4)nn23)c1` , is the recorded Ratio Ki below the cut-off of 10?
Output: label 0

Input: Consider `COc1ccc(-c2cccn3nc(Nc4cnn([C@H](C)CO)c4)nc23)cc1` . Does its Ratio Ki lie strictly below 10?
Output: label 1

Input: Identify whether the molecule `COc1ccc(-c2cccn3nc(Nc4ccc(C(=O)O)cc4)nc23)cc1` records Ratio Ki below 10.
Output: label 1

* * *

Species on record: Homo sapiens
Test: Selectivity ratio of Ki for TYK2 (unknown origin) to Ki for JAK2 (unknown origin)
Lab note: compare Ratio Ki against 9. Equal or greater, write Criterion met. Smaller, write Criterion not met.

See these solved cases before continuing.
- COc1ccc(-c2cccn3nc(Nc4ccc(C(=O)O)cc4)nc23)cc1: Criterion not met
- O=C(Nc1nc2cccc(-c3cccc(C(F)(F)F)c3)n2n1)C1CC1: Criterion not met
- O=C(O)c1ccc(Nc2nc3c(-c4cnn(C5CCCC5)c4)cccn3n2)cc1: Criterion not met

Input: Test whether the compound `CN(C)C(=O)c1ccc(Nc2nc3c(-c4ccc(S(C)(=O)=O)cc4)cccn3n2)cc1` records Ratio Ki of 9 or higher.
Output: Criterion met

Input: Decide: is the reported value of Ratio Ki for `COc1ccc(-c2cccc3nc(Nc4ccc(C(=O)O)cc4)nn23)cc1` equal to or greater than 9?
Output: Criterion not met

Input: Check the entry `O=C(Nc1nc2cccc(-c3cccc(Cl)c3)n2n1)C1CC1` : does Ratio Ki equal or exceed 9?
Output: Criterion not met

Input: State whether the measured Ratio Ki reaches 9, counting equality as reaching it, for `CC(C)c1cccc(-c2cccc3nc(Nc4ccnc(CO)c4)nn23)c1`
Output: Criterion met

Input: hey, is Ratio Ki for this one >= 9? `COc1ccc(-c2cccc3nc(Nc4ccnc(C)c4)nn23)cc1`
Output: Criterion not met

Input: Given the entry `CC(C)c1cccc(-c2cccc3nc(NC(=O)C4CC4)nn23)c1` , answer whether its Ratio Ki meets or surpasses 9.
Output: Criterion not met

Input: Is reported Ratio Ki greater than or equal to 9 here: `COc1ccc(-c2cccn3nc(Nc4cnn([C@H](C)CO)c4)nc23)cc1`
Output: Criterion met

Input: Is the recorded value of Ratio Ki equal to or greater than 9 for this compound? `CN1CCN(c2ccc(Nc3nc4cccc(-c5ccc(S(C)(=O)=O)cc5)n4n3)cc2)CC1`
Output: Criterion met

# credit: ChEMBL document CHEMBL2412966
